Ref: patent US10881668B2

# PROCEDURE_SUMMARY: in vivo
# EXPERIMENTAL_CONTEXT: male, CD1, mouse, iv, 1 mg/kg
MEASURED_ATTRIBUTE: half-life (h)

{"columns": ["MOLECULE_SMILES", "MEASURED_ATTRIBUTE", "MEASURE_UNIT", "VALUE"],
 "data": [
  ["Cc1sc2c(c1C)C(c1ccc(Cl)cc1)=N[C@@H](CC(=O)NCCCN1CCCC1)c1nnc(C)n1-2", "half-life", "h", 2],
  ["Cc1sc2c(c1C)C(c1ccc(Cl)cc1)=N[C@@H](CC(=O)N1CCC(N3CCCCC3)CC1)c1nnc(C)n1-2", "half-life", "h", 1],
  ["Cc1sc2c(c1C)C(c1ccc(Cl)cc1)=N[C@@H](CC(=O)N1CCn3c(nnc3C(F)(F)F)C1)c1nnc(C)n1-2", "half-life", "h", 0.5],
  ["Cc1sc2c(c1C)C(c1ccc(Cl)cc1)=N[C@@H](CC(=O)NCC1CCN(CCN(C)C)CC1)c1nnc(C)n1-2", "half-life", "h", 11.7],
  ["Cc1sc2c(c1C)C(c1ccc(Cl)cc1)=N[C@@H](CC(=O)NCCCN1CCC(N3CCCCC3)CC1)c1nnc(C)n1-2", "half-life", "h", 21]
]}

---

# PROCEDURE_SUMMARY: Pharmacokinetics in male CD1 mice, IV administration
# EXPERIMENTAL_CONTEXT: male, CD1, mouse, whole blood, iv, 5 mg/kg
Quick list: AUC(0-inf) per entry.

{"columns": ["MOLECULE_SMILES", "AUC(0-inf)"],
 "data": [
  ["Cc1sc2c(c1C)C(c1ccc(Cl)cc1)=N[C@@H](CC(=O)NC[C@H](C)O)c1nnc(C)n1-2", "2390 ng·h/mL"],
  ["Cc1sc2c(c1C)C(c1ccc(Cl)cc1)=N[C@@H](CC(=O)NC[C@@H](C)O)c1nnc(C)n1-2", "2960 ng·h/mL"]
]}

---

Quick list: Cmax per entry.
# PROCEDURE_SUMMARY: Pharmacokinetics in male CD1 mice, oral administration
# EXPERIMENTAL_CONTEXT: male, CD1, mouse, whole blood, po, 10 mg/kg
MEASURED_ATTRIBUTE: Cmax (ng/mL)

{"columns": ["COMPOUND", "MEASURED_ATTRIBUTE", "MEASURE_UNIT", "VALUE"],
 "data": [
  ["Cc1sc2c(c1C)C(c1ccc(Cl)cc1)=N[C@@H](CC(=O)NC[C@H](C)O)c1nnc(C)n1-2 [Compound 501]", "Cmax", "ng/mL", 1260],
  ["Cc1sc2c(c1C)C(c1ccc(Cl)cc1)=N[C@@H](CC(=O)NC[C@@H](C)O)c1nnc(C)n1-2 [Compound 502]", "Cmax", "ng/mL", 1430]
]}

---

# PROCEDURE_SUMMARY: Pharmacokinetics in male CD1 mice, IV administration
# EXPERIMENTAL_CONTEXT: male, CD1, mouse, whole blood, iv, 5 mg/kg
MEASURED_ATTRIBUTE: MRT inf

{"columns": ["MOLECULE_SMILES", "VALUE"],
 "data": [
  ["Cc1sc2c(c1C)C(c1ccc(Cl)cc1)=N[C@@H](CC(=O)NC[C@@H](C)O)c1nnc(C)n1-2", "52.9 min"],
  ["Cc1sc2c(c1C)C(c1ccc(Cl)cc1)=N[C@@H](CC(=O)NC[C@H](C)O)c1nnc(C)n1-2", "43.1 min"]
]}

---

# TARGET_OR_TEST_SYSTEM: BRDT(1) (Homo sapiens (Human))
# PROCEDURE_SUMMARY: AlphaScreen acetyl-histone binding assay, BRDT(1)
# EXPERIMENTAL_CONTEXT: H4K5acK8acK12acK16ac peptide
pIC50: −log10 of the molar value.
Quick list: pIC50 per entry.
MEASURED_ATTRIBUTE: pIC50

{"columns": ["COMPOUND", "MEASURED_ATTRIBUTE", "VALUE"],
 "data": [
  ["Cc1sc2c(c1C)C(c1ccc(Cl)cc1)=N[C@@H](CC(=O)NCC(F)F)c1nnc(C)n1-2 [Compound 504]", "pIC50", 7.16],
  ["Cc1sc2c(c1C)C(c1ccc(Cl)cc1)=N[C@@H](CC(=O)NC[C@@H](C)O)c1nnc(C)n1-2 [Compound 502]", "pIC50", 7.21],
  ["Cc1sc2c(c1C)C(c1ccc(Cl)cc1)=N[C@@H](CC(=O)NC[C@H](C)O)c1nnc(C)n1-2 [Compound 501]", "pIC50", 7.09],
  ["Cc1sc2c(c1C)C(c1ccc(Cl)cc1)=N[C@@H](CC(=O)NCCC(F)F)c1nnc(C)n1-2 [Compound 505]", "pIC50", 7.12],
  ["Cc1sc2c(c1C)C(c1ccc(Cl)cc1)=N[C@@H](CC(=O)NCC(C)(C)O)c1nnc(C)n1-2 [Compound 503]", "pIC50", 7.05]
]}
